Value source: PubChem BioAssay (NCI)

Tested on: MALME-3M melanoma
testDescription: NCI tumour cell line growth inhibition, 48 h
Param threshold (30 µM) applies to TGI; output yes (1) when value >= threshold, no (0) when value < threshold.

Does the compound CCN1CCC(O)(/C=C/c2ccc(C(C)C)cc2)C(C(=O)/C=C/c2ccc(C(C)C)cc2)C1 (configuration not stated) have recorded TGI that is 30 µM or more? no (0)

Also check CCN(Cc1c(Cl)cccc1Cl)c1ccc(CO)c(Cl)c1 no (0)

Also check CCCC(=O)[O-].N.N.N.N.N.[Co+3].[O-][Cl+3]([O-])([O-])[O-] yes (1)

Also check O=C1/C(=C/c2ccc(Br)cc2)CCC/C1=C\c1ccc(Br)cc1 yes (1)

Also check CC(=O)c1nc2ccccc2n1CC(=O)c1cccc(Cl)c1 yes (1)

Also check O=C(NC(=S)Nc1cc(Cl)ccc1O)c1cccc(Br)c1 yes (1)
